Listing: sfGFP reporter fluorescence of selected variants
B1: library; a variant is named by its letters at X, in order (parent)
chain: MNIQIGELAKRTACPVVTIRFYEQEGLLPPPGRSRGNFRLYGEEHVERLQFIRHCRSLDMPLSXVRTLLSYRKRPDQDCGEVXMLLDEHXRQVESRIGALLELXHXLVELREACSGARPAQSCGILQGLSDCVCDTRGTTAHXSD

variants of: B1; assay: sfGFP reporter fluorescence (15 h) (µM FITC); higher = stronger transcriptional activation; details: library round: Round 3b; ligand: 30 µM Zn

{"columns": ["MUT", "sfGFP reporter fluorescence"],
 "data": [
  ["KIATEP", 0.0643],
  ["KIITAT", 0.0547],
  ["KIAKAR", 0.0642],
  ["DIITAT", 0.0426],
  ["KNAVHT", 0.602]
]}

Notebook: KIAKAP , sfGFP reporter fluorescence read as 0.0578

Short answer for DFAVAT : sfGFP reporter fluorescence was 0.0449

The variant identified as KIAVHP registered its sfGFP reporter fluorescence at 0.0894

Looking up DIAKAR , I found its sfGFP reporter fluorescence recorded as 0.045

Per the records, this variant ( KFAKER ) has sfGFP reporter fluorescence equal to 0.0631

For KFAVAT the variant record lists sfGFP reporter fluorescence as 0.057
